# Assayed Target: rat EP4 receptor (Rattus norvegicus (Rat))
# Sequence (P43114 whole entry): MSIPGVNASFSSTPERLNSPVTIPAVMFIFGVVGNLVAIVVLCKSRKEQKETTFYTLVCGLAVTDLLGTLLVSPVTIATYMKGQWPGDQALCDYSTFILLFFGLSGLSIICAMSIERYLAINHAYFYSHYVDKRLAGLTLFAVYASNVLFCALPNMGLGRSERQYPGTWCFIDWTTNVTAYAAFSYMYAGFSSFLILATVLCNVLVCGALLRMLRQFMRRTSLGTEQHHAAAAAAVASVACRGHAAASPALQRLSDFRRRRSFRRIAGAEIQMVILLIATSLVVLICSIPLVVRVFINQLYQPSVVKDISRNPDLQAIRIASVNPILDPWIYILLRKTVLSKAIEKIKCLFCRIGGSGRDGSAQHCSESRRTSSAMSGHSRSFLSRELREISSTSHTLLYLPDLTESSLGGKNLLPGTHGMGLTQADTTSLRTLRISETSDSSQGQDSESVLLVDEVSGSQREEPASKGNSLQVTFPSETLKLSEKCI
# Protocol Details: EP4 antagonistic activity measurement using prostanoid receptor subtype expressing cells (cAMP)
# Measurement Parameters: CHO cells expressing rat EP4 receptor; inhibition of cAMP production by PGE2 10 nM
pIC50: −log10 of the molar value.

>  <Structure>
Cc1nnc(-c2ccc3c(c2)[C@]2(CCO3)C[C@H]2C(=O)Nc2cc(C#N)ccc2CCCC(=O)O)o1

>  <Assayed Target>
rat EP4 receptor (Rattus norvegicus (Rat))

>  <pIC50>
8.57

$$$$
>  <Structure>
CNC(=O)c1ccc2c(c1)[C@]1(CCO2)C[C@H]1C(=O)Nc1cc(C#N)ccc1CCCC(=O)O

>  <Assayed Target>
rat EP4 receptor (Rattus norvegicus (Rat))

>  <pIC50>
8.60

$$$$
>  <Structure>
N#Cc1ccc(CCCC(=O)O)c(NC(=O)[C@@H]2C[C@]23CCOc2ccc(-c4ccc(F)nc4)cc23)c1

>  <Assayed Target>
rat EP4 receptor (Rattus norvegicus (Rat))

>  <pIC50>
8.21

$$$$
>  <Structure>
CC(C)(C)n1cc(NC(=O)c2ccc3c(c2)[C@]2(CCO3)C[C@H]2C(=O)Nc2cc(C#N)ccc2CCCC(=O)O)cn1

>  <Assayed Target>
rat EP4 receptor (Rattus norvegicus (Rat))

>  <pIC50>
8.47

$$$$
>  <Structure>
CCCNC(=O)c1ccc2c(c1)[C@]1(CCO2)C[C@H]1C(=O)Nc1cc(C#N)ccc1CCCC(=O)O

>  <Assayed Target>
rat EP4 receptor (Rattus norvegicus (Rat))

>  <pIC50>
8.60

$$$$
>  <Structure>
N#Cc1ccc(CCCC(=O)O)c(NC(=O)[C@@H]2C[C@]23CCOc2ccc(C(=O)Nc4cccnn4)cc23)c1

>  <Assayed Target>
rat EP4 receptor (Rattus norvegicus (Rat))

>  <pIC50>
8.60

$$$$
>  <Structure>
Cc1ccc(-c2ccc3c(c2)[C@]2(CCO3)C[C@H]2C(=O)Nc2cc(C#N)ccc2CCCC(=O)O)cn1

>  <Assayed Target>
rat EP4 receptor (Rattus norvegicus (Rat))

>  <pIC50>
8.24

$$$$
>  <Structure>
N#Cc1ccc(CCCC(=O)O)c(NC(=O)[C@@H]2C[C@]23CCOc2ccc(C(=O)Nc4ncccn4)cc23)c1

>  <Assayed Target>
rat EP4 receptor (Rattus norvegicus (Rat))

>  <pIC50>
8.27

$$$$
>  <Structure>
CNC(=O)c1ccc2c(c1)[C@]1(CO2)C[C@H]1C(=O)Nc1cc(C#N)ccc1CCCC(=O)O

>  <Assayed Target>
rat EP4 receptor (Rattus norvegicus (Rat))

>  <pIC50>
8.14

$$$$
>  <Structure>
COCCNC(=O)c1ccc2c(c1)[C@]1(CCO2)C[C@H]1C(=O)Nc1cc(C#N)ccc1CCCC(=O)O

>  <Assayed Target>
rat EP4 receptor (Rattus norvegicus (Rat))

>  <pIC50>
8.28

$$$$
>  <Structure>
CNC(=O)c1cc2c(cc1OC)OCC[C@]21C[C@H]1C(=O)Nc1cc(C#N)ccc1CCCC(=O)O

>  <Assayed Target>
rat EP4 receptor (Rattus norvegicus (Rat))

>  <pIC50>
8.00

$$$$
>  <Structure>
COCCNC(=O)c1ccc2c(c1)[C@@]1(C[C@H]1C(=O)Nc1cc(C#N)ccc1CCCC(=O)O)CC2(C)C

>  <Assayed Target>
rat EP4 receptor (Rattus norvegicus (Rat))

>  <pIC50>
8.27

$$$$
>  <Structure>
N#Cc1ccc(CCCC(=O)O)c(NC(=O)[C@@H]2C[C@]23CCOc2ccc(-n4cccn4)cc23)c1

>  <Assayed Target>
rat EP4 receptor (Rattus norvegicus (Rat))

>  <pIC50>
8.62

$$$$
>  <Structure>
N#Cc1ccc(CCCC(=O)O)c(NC(=O)[C@@H]2C[C@]23CCOc2ccc(C(=O)NC4CC4)cc23)c1

>  <Assayed Target>
rat EP4 receptor (Rattus norvegicus (Rat))

>  <pIC50>
8.40

$$$$
